experiment description: in vivo
Type: in vivo, mice
settings: male, CD-1, mouse, CSF, ip, 10 mg/kg, mice, IP 10 mg/kg, CSF, 360 min, individual animals; read-out: CSF concentration, Final
measured metric: concentration at 360 min
Put your answer as a value accompanied by its unit after it.

Look at this compound and give its reported concentration at 360 min. O=C(O)C1CCC2(CC1)CC(Nc1ncnc3[nH]c4c(F)cccc4c13)C2 (stereo not shown)
98.6 ng/mL

###

target system: wild-type EP4R (Homo sapiens, UniProt P35408)
experiment description: cell-based
In this section, each of the molecules is paired with its reported log10 IC50.
Base-10 log of IC50, unit µM.

Give the measured log10 IC50 of Cn1c2ccccc2c2c(NC3CC4(CCC(C(=O)O)CC4)C3)ncnc21 (stereo not drawn) [Compound 75] .
-0.09

And then O=C(O)C1CCC2(CC1)CC(Nc1ncnc3[nH]c4ccccc4c13)C2 (stereo not drawn) [Compound 73] , what is it?
-0.84

Let us now turn to O=C(O)C1CCC2(CC1)CC(Nc1ncnc3[nH]c4ccc(Br)cc4c13)C2 (stereo not drawn) [Compound 135]
-0.87

Also check Cc1cc(C(=O)N[C@H]2CC[C@H](C(=O)O)CCC2(F)F)c(C)n1-c1ccccc1 [Compound 83]
0.53

How about O=C(O)C1CCC2(CC1)CC(Nc1ncnc3[nH]c4cc(F)ccc4c13)C2 (stereo not drawn) [Compound 134] ?
-0.81

Again, but for O=C(NC1CCCC(C(=O)O)CC1)c1csc(C2CCCCC2)c1 (stereo not drawn) [Compound 66]
0.61

Further, for O=C(O)C1CCC2(CC1)CC(Nc1ncnc3[nH]c4c(F)cccc4c13)C2 (stereo not drawn) [Compound 74] ?
-1.10

Then this molecule: O=C(O)C1CCC2(CC1)CC(Nc1ncnc3sc4c(c13)CCCC4)C2 (stereo not drawn) [Compound 71]
-0.05

How about this molecule: O=C(O)C1CCC2(CC1)CC(Nc1ncnc3sc4ccccc4c13)C2 (stereo not drawn) [Compound 72]
-0.29

###

experiment description: in vivo
Type: in vivo, mice
settings: male, CD-1, mouse, plasma, ip, 10 mg/kg, mice, IP 10 mg/kg, plasma, 30 min, mean of 3 animals; read-out: Plasma concentration C (mean)
measured metric: concentration at 30 min (ng/mL)
Field format: number, assumed ng/mL, no unit text.

I have this compound here, O=C([O-])C1CCC2(CC1)CC(Nc1ncnc3[nH]c4c(F)cccc4c13)C2.[Na+] (stereo not shown) , and I need its recorded concentration at 30 min.
6710

###

experiment description: in vivo
Assay type: in vivo, mice
settings: male, CD-1, mouse, plasma, ip, 10 mg/kg, mice, IP 10 mg/kg, plasma, 15 min, mean of 3; read-out: Plasma concentration C (mean)
measured metric: concentration at 15 min (ng/mL)
Supply the numeric figure in ng/mL, leaving out any unit text.

Given CCc1nc2c(C)nc(C)cc2n1-c1ccc(CCNC(=O)NS(=O)(=O)c2ccc(C)cc2)cc1 [Grapiprant, reference compound] , state its recorded concentration at 15 min.
834

###

experiment description: in vivo
Assay type: in vivo, mice
settings: male, CD-1, mouse, CSF, ip, 10 mg/kg, mice, IP 10 mg/kg, CSF, 60 min, mean; read-out: CSF concentrations of cmpd 7827_0016 in mice following IP (10 mg/kg) administration, C
measured metric: concentration at 60 min (ng/mL)
Numeric only. Scale: ng/mL

Which concentration at 60 min is listed for O=C(O)C1CCC2(CC1)CC(Nc1ncnc3[nH]c4c(F)cccc4c13)C2 (stereo not shown) [Compound 74] ?
158

###

target system: EP4R (Homo sapiens, UniProt P35408)
Construct: Tango fusion cassette (only 'tango' is printed); expressed in transfected cells; host or cells: HTLA cells (tTA-dependent luciferase reporter, β-arrestin2-TEV fusion)
Sequence (P35408 whole entry, the tested form may be a part): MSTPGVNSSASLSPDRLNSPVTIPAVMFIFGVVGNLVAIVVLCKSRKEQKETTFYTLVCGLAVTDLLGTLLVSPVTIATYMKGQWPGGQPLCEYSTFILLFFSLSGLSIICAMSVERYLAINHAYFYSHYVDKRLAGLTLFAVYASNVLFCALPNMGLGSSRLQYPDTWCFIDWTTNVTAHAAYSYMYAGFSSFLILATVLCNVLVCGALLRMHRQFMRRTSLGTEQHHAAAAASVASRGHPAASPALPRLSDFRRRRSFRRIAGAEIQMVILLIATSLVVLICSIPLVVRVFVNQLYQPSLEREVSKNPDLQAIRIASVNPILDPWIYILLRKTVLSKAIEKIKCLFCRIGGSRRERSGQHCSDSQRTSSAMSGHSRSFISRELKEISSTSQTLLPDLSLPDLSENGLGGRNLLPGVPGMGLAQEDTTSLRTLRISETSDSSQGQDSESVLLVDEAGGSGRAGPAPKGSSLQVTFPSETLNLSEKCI
experiment description: biochemical
Format: binding
settings: […], read-out: % displacement of 3HPGE2 at 10 µM, 10 µM compound vs 10 nM 3H-PGE2
measured metric: inhibition at 10 µM (%)
Reply with just the number (in %).

Solved entries:
* Cc1cccc2sc(N(C)CC(C)c3nnn[nH]3)nc12 (stereo not drawn) [Compound 47, CC(CN(C)C1=NC=2C(C)=CC=CC2S1)C3=NN=NN3] | -1.1
* Cc1ccc(CN(Cc2ccco2)C(=O)CSc2nnc(S)s2)s1 [Compound 37] | -5.2
* CN(C(=O)CSc1nnc(S)s1)c1ccc2ccccc2c1 [Compound 36] | -5.8
* O=C(O)Cc1ccc(NC(=O)c2cc(C3CC3)nc3ccc(F)cc23)cc1 [Compound 68] | 31.8
* CC1(COC(=O)c2ccc(NS(C)(=O)=O)nc2)CC1(F)Cl (stereo not drawn) [Compound 7] | -18.4

Now look at this one.
Would you mind telling me what inhibition at 10 µM value was observed for CC(CN(C(=O)c1cc2c(C(F)F)nn(C)c2s1)C1CC1)C(=O)O (stereo not drawn) [Compound 24] ?
-10.7

###

target system: EP4R (Homo sapiens, UniProt P35408)
Construct: Tango fusion cassette (only 'tango' is printed); expressed in transfected cells; host or cells: HTLA cells (tTA-dependent luciferase reporter, β-arrestin2-TEV fusion)
experiment description: biochemical
Format: binding
settings: […], read-out: % displacement of 3HPGE2 at 10 µM, 10 µM compound vs 10 nM 3H-PGE2
measured metric: inhibition at 10 µM (%)
# output: bare number, implied unit %

Answered cases to consult:
* O=C(O)C(NS(=O)(=O)CCc1cccc(Cl)c1)C(O)c1ccccc1 (stereo not drawn) [Compound 29] | -10.2
* O=C(NC1CCCC1C(=O)O)C(Sc1ccc(F)cc1)c1ccccc1 (stereo not drawn) [Compound 28] | -10.3
* Cc1ccc(-n2nc(C(=O)Nc3ccc(CC(=O)O)cc3)c3c2CCC3)cc1 [Compound 64] | 20

Name the recorded inhibition at 10 µM for Cn1nnnc1NCC(C(=O)OCc1ccccc1)c1ccccc1 (stereo not drawn) [Compound 67] .
31.5

And what about the molecule CC(CN(Cc1ccccc1)C(=O)COc1ccc(Cl)c2cccnc12)C(=O)O (stereo not drawn) [Compound 35] ?
-5.8

Moving on to the next molecule: c1ccc(-c2nc(SCc3nnn[nH]3)oc2-c2ccccc2)cc1 [Compound 20]
-12.7

Here is the next molecule: CCc1ncc(CN(CC(=O)O)C(=O)OCc2cccnc2)s1 [Compound 2]
-23.1

Moving on to the next molecule: CC(CN(C)c1nc(C(F)(F)F)cs1)C(=O)O (stereo not drawn) [Compound 9, CC(CN(C)C1=NC(=CS1)C(F)(F)F)C(=O)O]
-18.1

// repeat for CN(c1cccc(CC(=O)O)c1)S(=O)(=O)CC1Cc2ccccc2C1 [Compound 23] and report
-11.1

Entry to check: COc1ccc(Cl)cc1C(Nc1ncc(C(=O)O)s1)c1ccccc1 (stereo not drawn) [Compound 10]
-17.8

Here is the next molecule: O=C(O)c1cc2c(s1)CCCN(C(=O)C1CC13CCc1ccccc13)C2 (stereo not drawn) [Compound 26]
-10.6

Then O=C(O)CCc1cccc(NC(=O)c2c(C(F)(F)F)nc3n2CCCC3)c1 [Compound 5] ?
-19

Also CC(C)(Oc1ccc(F)cc1)C(=O)N1CC(CC(=O)O)c2ccccc21 (stereo not drawn) [Compound 60] ?
13.8

Field entry: O=C(O)c1cc(NS(=O)(=O)c2ccc(Br)cc2F)ccc1O [Compound 53]
2.8

// same read-out, input: CN(Cc1nccn1C1CC1)c1ncnc2[nH]c(C(=O)O)cc12 [Compound 16]
-14.5

###

target system: EP4R (Homo sapiens, UniProt P35408)
Construct: Tango fusion cassette (only 'tango' is printed); expressed in transfected cells; host or cells: HTLA cells (tTA-dependent luciferase reporter, β-arrestin2-TEV fusion)
experiment description: PRESTO-Tango β-arrestin2 recruitment assay
Assay type: cell-based
settings: PRESTO-Tango -logIC50, antagonist mode, EC80 of PGE2
Readings of pIC50 for the listed compounds
Interpret pIC50 as the negative base-10 log of the concentration measured in mol/L.

Completed entries (count: 3):
• O=C(O)C[C@@H]1CC[C@H](NC(=O)c2csc(C3CCCCC3)c2)C1 = 5.74
• COc1cccc(-n2c(C)cc(C(=O)NC3CCCC(C(=O)O)CC3)c2C)c1 (centres unmarked) = 4.64
• O=C(NC1CC2(CCC(C(=O)O)CC2)C1)c1csc(C2CCCCC2)c1 (centres unmarked) = 4.99

Quick one: pIC50 for "O=C(N[C@@H]1CC[C@@H](C(=O)O)CCC1(F)F)c1nn(-c2cccc(F)c2)c2c1CCC2" ?
6.00

Cool, now Cc1cc(C(=O)NC2CCCC(C(=O)O)CC2)c(C)n1-c1ccc(F)cc1 (centres unmarked)
4.59
